Molecular target: full-length LRRK2 G2019S (Homo sapiens, UniProt Q5S007, G2019S)
Construct: DYKDDDDK (FLAG)
Sequence (Q5S007 whole entry G2019S): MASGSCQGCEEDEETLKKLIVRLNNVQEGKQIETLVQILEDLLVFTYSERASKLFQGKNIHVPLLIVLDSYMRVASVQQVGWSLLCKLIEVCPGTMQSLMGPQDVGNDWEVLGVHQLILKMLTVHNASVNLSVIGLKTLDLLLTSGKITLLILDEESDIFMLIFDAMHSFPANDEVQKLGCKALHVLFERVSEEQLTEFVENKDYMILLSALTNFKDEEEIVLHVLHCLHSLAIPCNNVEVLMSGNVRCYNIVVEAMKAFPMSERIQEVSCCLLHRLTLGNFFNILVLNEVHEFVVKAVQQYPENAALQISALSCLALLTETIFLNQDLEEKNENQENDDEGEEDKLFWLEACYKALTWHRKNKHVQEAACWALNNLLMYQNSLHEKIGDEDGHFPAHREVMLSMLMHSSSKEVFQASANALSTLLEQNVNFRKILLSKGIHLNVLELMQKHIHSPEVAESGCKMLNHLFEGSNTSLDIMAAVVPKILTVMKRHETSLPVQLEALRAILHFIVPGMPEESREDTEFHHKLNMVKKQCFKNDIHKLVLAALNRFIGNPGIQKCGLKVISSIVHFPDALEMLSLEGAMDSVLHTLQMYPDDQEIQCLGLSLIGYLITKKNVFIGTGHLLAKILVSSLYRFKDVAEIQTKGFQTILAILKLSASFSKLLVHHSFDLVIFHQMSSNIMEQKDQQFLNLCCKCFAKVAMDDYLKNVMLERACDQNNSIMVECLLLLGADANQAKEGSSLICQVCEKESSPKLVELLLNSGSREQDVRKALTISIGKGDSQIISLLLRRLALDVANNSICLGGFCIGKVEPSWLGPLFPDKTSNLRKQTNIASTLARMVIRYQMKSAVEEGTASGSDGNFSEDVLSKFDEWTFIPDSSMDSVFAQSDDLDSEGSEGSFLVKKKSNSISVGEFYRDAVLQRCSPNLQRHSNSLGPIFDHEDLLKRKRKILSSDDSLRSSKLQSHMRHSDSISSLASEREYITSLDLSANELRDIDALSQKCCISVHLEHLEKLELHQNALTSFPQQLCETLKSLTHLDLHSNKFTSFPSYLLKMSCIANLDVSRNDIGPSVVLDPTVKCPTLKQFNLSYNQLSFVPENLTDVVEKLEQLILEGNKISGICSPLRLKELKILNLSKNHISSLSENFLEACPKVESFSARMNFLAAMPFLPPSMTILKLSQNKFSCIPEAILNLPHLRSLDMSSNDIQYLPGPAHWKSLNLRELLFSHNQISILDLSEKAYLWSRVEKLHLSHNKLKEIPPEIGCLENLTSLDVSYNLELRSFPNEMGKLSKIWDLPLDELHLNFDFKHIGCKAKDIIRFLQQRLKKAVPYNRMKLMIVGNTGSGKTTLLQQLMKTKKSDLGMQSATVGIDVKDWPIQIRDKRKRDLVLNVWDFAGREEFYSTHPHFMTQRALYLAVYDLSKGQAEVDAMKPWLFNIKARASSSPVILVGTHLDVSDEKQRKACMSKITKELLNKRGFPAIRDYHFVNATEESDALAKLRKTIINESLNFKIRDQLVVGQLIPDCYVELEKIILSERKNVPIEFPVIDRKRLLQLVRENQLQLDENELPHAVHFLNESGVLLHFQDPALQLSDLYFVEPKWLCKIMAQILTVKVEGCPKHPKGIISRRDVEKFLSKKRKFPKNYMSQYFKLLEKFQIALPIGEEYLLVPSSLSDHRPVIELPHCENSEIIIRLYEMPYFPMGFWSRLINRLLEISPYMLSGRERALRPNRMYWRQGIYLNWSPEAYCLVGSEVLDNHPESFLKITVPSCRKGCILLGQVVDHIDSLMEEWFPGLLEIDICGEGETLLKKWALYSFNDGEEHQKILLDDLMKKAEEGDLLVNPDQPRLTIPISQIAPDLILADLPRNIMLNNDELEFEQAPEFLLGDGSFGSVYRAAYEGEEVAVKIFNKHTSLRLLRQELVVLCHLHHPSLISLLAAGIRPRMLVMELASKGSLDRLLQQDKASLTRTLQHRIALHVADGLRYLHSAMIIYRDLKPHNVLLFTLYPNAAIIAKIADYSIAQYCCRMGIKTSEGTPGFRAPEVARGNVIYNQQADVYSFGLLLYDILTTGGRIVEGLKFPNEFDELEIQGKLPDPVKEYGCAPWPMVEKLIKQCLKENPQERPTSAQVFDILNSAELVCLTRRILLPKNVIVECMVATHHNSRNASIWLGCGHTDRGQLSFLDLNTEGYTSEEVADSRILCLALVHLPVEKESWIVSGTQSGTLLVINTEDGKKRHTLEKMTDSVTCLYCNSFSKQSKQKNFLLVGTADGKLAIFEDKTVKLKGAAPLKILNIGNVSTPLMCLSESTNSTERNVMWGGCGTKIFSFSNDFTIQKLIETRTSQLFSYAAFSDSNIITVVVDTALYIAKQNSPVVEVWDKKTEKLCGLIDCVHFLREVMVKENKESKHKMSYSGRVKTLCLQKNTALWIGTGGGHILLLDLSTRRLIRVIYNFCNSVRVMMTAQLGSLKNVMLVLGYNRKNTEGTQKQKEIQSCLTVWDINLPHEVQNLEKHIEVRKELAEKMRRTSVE
Experiment: LRRK2-G2019S kinase activity assay (Lanthascreen TR-FRET)
Conditions: 1.1 mM ATP
measurement_label: IC50 (nM)
Value expressed in nM; do not type the unit.

// map [2H]C([2H])([2H])n1cc(Nc2ncc3cc(C#N)n([C@@H](C)COC)c3n2)c(O[C@@H]2COC[C@@H]2O)n1 (single isomer, unassigned) to recorded IC50 (system: full-length LRRK2 G2019S (Homo sapiens, UniProt Q5S007, G2019S))
81

// map [2H]C([2H])([2H])n1cc(Nc2ncc3cc(C#N)n([C@@H](C)COC)c3n2)c(OC2C(C)(C)C(O)C2(C)C)n1 (single isomer, unassigned) [Example 132] to recorded IC50 (system: full-length LRRK2 G2019S (Homo sapiens, UniProt Q5S007, G2019S))
32

// map `CC(C)Oc1nn(C(C)(C)C#N)cc1Nc1ncc2cc(C#N)n(C3COC3)c2n1` to recorded IC50 (system: full-length LRRK2 G2019S (Homo sapiens, UniProt Q5S007, G2019S))
14
